Tested on: rat liver mitochondria (RLM)
assay_overview: Mitochondrial respiration of isolated RLM (Clark-type oxygen electrode)
Assay type: biochemical
particulars: glutamate/malate; 2.5 μM
// reported RCR (respiratory control ratio, state 3/state 4) per item
Could you keep your reply to the number by itself?

Example entries begin here.
[[record]]
compound = "CS(=O)(=O)[O-].O=C(/C=C/c1ccc(O)c(O)c1)NCCCCCCCC[P+](c1ccccc1)(c1ccccc1)c1ccccc1 [AntiOxCIN3]"
numeric_readout = 3.8

[[record]]
compound = "CS(=O)(=O)[O-].O=C(/C=C/c1cc(O)c(O)c(O)c1)NCCCCCC[P+](c1ccccc1)(c1ccccc1)c1ccccc1 [AntiOxCIN4]"
numeric_readout = 5.3

[[record]]
compound = "CS(=O)(=O)[O-].O=C(/C=C/c1ccc(O)c(O)c1)NCCCCCC[P+](c1ccccc1)(c1ccccc1)c1ccccc1 [AntiOxCIN2]"
numeric_readout = 5.2

[[record]]
compound = "CS(=O)(=O)[O-].O=C(/C=C/c1cc(O)c(O)c(O)c1)NCCCCCCCCCC[P+](c1ccccc1)(c1ccccc1)c1ccccc1 [AntiOxCIN7]"
numeric_readout = 3.6

[[record]]
compound = "CS(=O)(=O)[O-].O=C(/C=C/c1ccc(O)c(O)c1)NCCCCCCCCCC[P+](c1ccccc1)(c1ccccc1)c1ccccc1 [AntiOxCIN6]"
numeric_readout = 3.1


Please report the recorded RCR (respiratory control ratio, state 3/state 4) for CS(=O)(=O)[O-].O=C(/C=C/c1cc(O)c(O)c(O)c1)NCCCCCCCC[P+](c1ccccc1)(c1ccccc1)c1ccccc1 [AntiOxCIN5] .
3.7

Given the compound COC1=C(OC)C(=O)C(CCCCCCCCCC[P+](c2ccccc2)(c2ccccc2)c2ccccc2)=C(C)C1=O.CS(=O)(=O)[O-] [MitoQ, reference compound] , what is its reported RCR (respiratory control ratio, state 3/state 4)?
4.2

Hey, just so you know, these numbers are from patent US10913757B2.
